All figures here come from ChEMBL document CHEMBL1201862.

Tested on: HOP-92
assay: NCI tumour cell line growth inhibition, 48 h
Active and inactive are the calls of the source. No stated cut-off is given here; in the data, active = GI50 up to about 1.1 µM and inactive = higher.
measured-endpoint: GI50

CCn1c(=O)nc2n(-c3ccccc3)c3ccccc3nc-2c1=O = 18.3 µM (inactive)
Cc1ccc(NC(=O)CCC(=O)C2CC(=O)CC/C2=N\NC(=O)c2cc3ccccc3cc2O)cc1C (stereo not drawn) = 14.3 µM (inactive)

Now look at this entry.
Kindly state the measured GI50 obtained for CN(C)C1(N(C)C)Oc2c(c(=O)n(C)c(=O)n2C)C(c2ccccc2)C1(F)F (stereo not drawn) with HOP-92.
> 100 µM (inactive)

* * *

Test system: HL-60
assay: NCI tumour cell line growth inhibition, 48 h
The source made the active and inactive calls. No stated cut-off is given here; in the data, active = GI50 up to about 1.1 µM and inactive = higher.
measured-endpoint: GI50

Example entries begin here.
CCOC1NC(=O)Oc2cc3ccccc3cc21 (configuration not stated) = 31.3 µM (inactive)
CN(C)c1ccc(/C=C2/SC(=S)NC2=O)cc1 = > 100 µM (inactive)
C=C(C)[C@@]1(O)CCCC[C@@H]1CC(Sc1ccccc1)Sc1ccccc1 = 15.2 µM (inactive)
N#C/C(=C/NC(=S)Nc1ccc(S(N)(=O)=O)cc1)C(N)=O = 43.7 µM (inactive)
CCN(CCCN(CC)C(=O)Nc1ccccc1)C(=O)Nc1ccccc1 = > 100 µM (inactive)
ClCCCSSCCCCl = 3.86 µM (inactive)

Now look at this entry.
Kindly state the measured GI50 obtained for COc1cccc(Nc2n[nH]c(NS(=O)(=O)c3cc(C)c(Cl)cc3S)n2)c1 with HL-60.
> 100 µM (inactive)

* * *

System: MCF7
assay: NCI tumour cell line growth inhibition, 48 h
Active and inactive are the calls of the source. Rule as the data show it: active = GI50 up to about 1.1 µM and inactive = higher. Residues, ends and D or L forms follow the SMILES beside them.
measured-endpoint: GI50

Example entries begin here.
O=c1oc2cc(O)ccc2c(O)c1C(c1ccccc1F)c1c(O)c2ccc(O)cc2oc1=O = 45.2 µM (inactive)
CN(C)CCCN1CCC2(CCC(C(C)(C)C)CC2)CC1 = 1.65 µM (inactive)
CS(=O)(=O)CC(=O)c1ccccc1 = > 100 µM (inactive)
CC1=NN(c2nc(N)nc(-c3cc4ccccc4oc3=N)n2)C(C)(C)C1 = 27.7 µM (inactive)

// input: 8 compounds below; output: GI50 for each
1. N/C(=N\O)N/N=C/c1ccc2c(c1)OCO2
2. Cc1ccc2c(O)cc(-c3ccc(Cl)s3)nc2n1
3. O=C1c2cccnc2-c2nccc3c2c1nc1cc(Br)ccc13
4. O=C1CSC(c2cccc(Oc3ccccc3)c2)N1c1cc(Cl)ccc1Cl (stereo unspecified)
5. O=C(/C=C1\Nc2ccccc2N\C1=C\C(=O)c1ccc(Cl)cc1)c1ccccc1
6. CO[C@H]1C=C[C@@]23c4cc5c(cc4CO[C@]2(O)CN(C)[C@H]3C1)OCO5
7. O=C(O)c1ccc(NCc2nc3cc4ccccc4cc3[nH]2)cc1
8. CCCCCCCN1C(=O)C(O)(c2ccc(C3(O)C(=O)N(CCCCCCC)c4ccccc43)s2)c2ccccc21 (stereo unspecified)

28.6 µM (inactive)
0.422 µM (active)
< 0.0366 µM (active)
6.3 µM (inactive)
38.7 µM (inactive)
> 100 µM (inactive)
2.81 µM (inactive)
2.21 µM (inactive)

// input: 3 compounds below; output: GI50 for each
1. CCc1ccccc1N1CCN(C(=O)c2cc(OC)c(OC)c(OC)c2)CC1
2. COc1cc(C(=O)O)c([N+](=O)[O-])c(OC)c1OC
3. CCC[C@@H](O)C[C@@H]1CCC[C@H](C[C@@H](O)CC)N1C

1. 0.0178 µM (active)
2. > 100 µM (inactive)
3. > 100 µM (inactive)

What measured GI50 goes with CCC(C)C(NC(=O)C1CCCN1)C(=O)NC(C(=O)NCC(=O)NC(CC(N)=O)C(=O)NC(CC(C)C)C(=O)NC(CC(C)C)C(=O)NC(CCCCN)C(N)=O)C(C)C (stereo unspecified) (H-PIVGNLLK-NH2; configuration not given here) ?
> 75 µM (inactive)
